# tgt: 5-lipoxygenase (Rattus norvegicus)
# Construct: endogenous in cells; host or cells: RBL-1 (rat basophilic leukemia cells)
# protocol text: Inhibition of 5-lipoxygenase (5-HETE production in RBL-1 cells)
# Format: cell-based
# experimental context: 10^-8 M
Reported inhibition at 0.01 µM by item:
Numeric answer only, unit % assumed.

• Cc1c(C)c2c(c(C)c1O)C(c1ccc(C(C)C)cc1)C(C)(C)O2 (centres unmarked) [Example 20] = 36
• Cc1c(C)c2c(c(C)c1O)C(c1ccccn1)C(C)(C)O2 (centres unmarked) [Example 4] = 0
• Cc1c(C)c2c(c(C)c1O)C(c1ccccc1)C(C)(C)O2 (centres unmarked) [Example 6] = 0

QUERY: Quote inhibition at 0.01 µM reported for Cc1c(C)c2c(c(C)c1O)C(c1ccc(F)cc1)C(C)(C)O2 (centres unmarked) [Example 7] please.
RESULT: 13

QUERY: Entry Cc1c(C)c2c(c(C)c1O)C(c1cccnc1)C(C)(C)O2 (centres unmarked) [Example 1] needs its inhibition at 0.01 µM filled in; supply it.
RESULT: 16

QUERY: Return value of inhibition at 0.01 µM for input Cc1c(C)c2c(c(C)c1O)C(c1cccnc1)C1(CCCC1)O2 (centres unmarked) [Example 2] , no commentary.
RESULT: 18

QUERY: Note down inhibition at 0.01 µM recorded for Cc1c(C)c2c(c(C)c1O)C(c1cccnc1)C1(CCCCC1)O2 (centres unmarked) [Example 3]
RESULT: 20

QUERY: Fill in reported inhibition at 0.01 µM for this entry: Cc1c2c(c3ccccc3c1O)OC(C)(C)C2c1cccnc1 (centres unmarked) [Example 5]
RESULT: 0

###

# tgt: 5-lipoxygenase (Rattus norvegicus, UniProt P12527)
# Construct: endogenous in cells; host or cells: RBL-1 (rat basophilic leukemia cells)
# Sequence (P12527 whole entry): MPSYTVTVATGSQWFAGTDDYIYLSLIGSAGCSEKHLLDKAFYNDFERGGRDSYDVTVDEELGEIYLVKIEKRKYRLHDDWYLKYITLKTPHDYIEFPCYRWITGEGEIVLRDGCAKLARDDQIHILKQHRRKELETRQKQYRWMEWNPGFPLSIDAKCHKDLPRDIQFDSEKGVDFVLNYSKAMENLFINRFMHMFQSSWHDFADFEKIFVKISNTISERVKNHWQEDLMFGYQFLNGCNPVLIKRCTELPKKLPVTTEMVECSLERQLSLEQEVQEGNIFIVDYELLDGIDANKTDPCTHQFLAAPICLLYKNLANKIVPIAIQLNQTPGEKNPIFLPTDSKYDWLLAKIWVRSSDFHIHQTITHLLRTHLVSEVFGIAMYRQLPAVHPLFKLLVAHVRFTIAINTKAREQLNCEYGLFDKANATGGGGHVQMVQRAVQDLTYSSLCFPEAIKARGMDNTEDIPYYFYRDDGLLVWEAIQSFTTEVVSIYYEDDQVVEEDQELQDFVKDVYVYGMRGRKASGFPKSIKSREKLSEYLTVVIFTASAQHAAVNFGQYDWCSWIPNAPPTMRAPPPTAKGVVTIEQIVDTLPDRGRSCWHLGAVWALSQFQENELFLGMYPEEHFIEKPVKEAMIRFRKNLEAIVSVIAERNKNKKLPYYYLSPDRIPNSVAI
# protocol text: Inhibition of 5-lipoxygenase (5-HETE production in RBL-1 cells)
# Assay type: cell-based
# experimental context: 10^-7 M
recorded endpoint: inhibition at 0.1 µM (%)
API: value field is a number in %; no unit string.

Known inhibition at 0.1 µM results, listed for orientation:
- Cc1c(C)c2c(c(C)c1O)C(c1cccnc1)C(C)(C)O2 (centres unmarked) [Example 1]: 57
- Cc1c2c(c3ccccc3c1O)OC(C)(C)C2c1cccnc1 (centres unmarked) [Example 5]: 22
- Cc1c(C)c2c(c(C)c1O)C(c1ccccc1)C(C)(C)O2 (centres unmarked) [Example 6]: 18
- Cc1c(C)c2c(c(C)c1O)C(c1cccnc1)C1(CCCC1)O2 (centres unmarked) [Example 2]: 70
- Cc1c(C)c2c(c(C)c1O)C(c1ccc(C(C)C)cc1)C(C)(C)O2 (centres unmarked) [Example 20]: 42

QUERY: Supply inhibition at 0.1 µM value. Item: Cc1c(C)c2c(c(C)c1O)C(c1ccccn1)C(C)(C)O2 (centres unmarked) [Example 4]
RESULT: 18

QUERY: Look up inhibition at 0.1 µM of Cc1c(C)c2c(c(C)c1O)C(c1ccc(F)cc1)C(C)(C)O2 (centres unmarked) [Example 7] and report it.
RESULT: 43

QUERY: Supply measured inhibition at 0.1 µM of Cc1c(C)c2c(c(C)c1O)C(c1cccnc1)C1(CCCCC1)O2 (centres unmarked) [Example 3] in your reply.
RESULT: 64

###

# tgt: 5-lipoxygenase (Rattus norvegicus, UniProt P12527)
# Construct: endogenous in cells; host or cells: RBL-1 (rat basophilic leukemia cells)
# protocol text: Inhibition of 5-lipoxygenase (5-HETE production in RBL-1 cells)
# Type: cell-based
# experimental context: 10^-6 M
recorded endpoint: inhibition at 1 µM
Reply with a number, then the unit it belongs to.

Below, 5 compounds whose answers are already recorded.
* Cc1c(C)c2c(c(C)c1O)C(c1cccnc1)C(C)(C)O2 (centres unmarked) | 89%
* Cc1c(C)c2c(c(C)c1O)C(c1ccc(C(C)C)cc1)C(C)(C)O2 (centres unmarked) | 100%
* Cc1c(C)c2c(c(C)c1O)C(c1ccccc1)C(C)(C)O2 (centres unmarked) | 92%
* Cc1c(C)c2c(c(C)c1O)C(c1cccnc1)C1(CCCC1)O2 (centres unmarked) | 91%
* Cc1c(C)c2c(c(C)c1O)C(c1ccccn1)C(C)(C)O2 (centres unmarked) | 98%

QUERY: Provide inhibition at 1 µM, system 5-lipoxygenase (Rattus norvegicus, UniProt P12527), entry Cc1c(C)c2c(c(C)c1O)C(c1cccnc1)C1(CCCCC1)O2 (centres unmarked)
RESULT: 91%

QUERY: Enter measured inhibition at 1 µM, system 5-lipoxygenase (Rattus norvegicus, UniProt P12527), for the compound shown: Cc1c2c(c3ccccc3c1O)OC(C)(C)C2c1cccnc1 (centres unmarked)
RESULT: 99%

QUERY: Write inhibition at 1 µM of Cc1c(C)c2c(c(C)c1O)C(c1ccc(F)cc1)C(C)(C)O2 (centres unmarked) ; system used: 5-lipoxygenase (Rattus norvegicus, UniProt P12527)
RESULT: 99%
